Reported pKi by item:
Target: Human CXCR4 transfected HEK293 cells (Homo sapiens)
Sequence (P61073 whole entry): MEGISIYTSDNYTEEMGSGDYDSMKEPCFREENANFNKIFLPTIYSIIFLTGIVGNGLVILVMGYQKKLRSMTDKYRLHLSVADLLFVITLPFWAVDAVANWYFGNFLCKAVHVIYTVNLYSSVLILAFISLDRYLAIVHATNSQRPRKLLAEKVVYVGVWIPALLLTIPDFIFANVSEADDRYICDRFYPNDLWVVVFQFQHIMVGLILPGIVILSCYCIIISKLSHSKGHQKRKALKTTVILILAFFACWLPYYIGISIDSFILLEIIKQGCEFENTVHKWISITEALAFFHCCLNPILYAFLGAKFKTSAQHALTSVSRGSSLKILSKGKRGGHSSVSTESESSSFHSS
Experiment: CXCR4 functional calcium assay (calcium flux FLIPR, antagonism of SDF1 response)
Conditions: CXCR4 functional activity, antagonism of SDF1 (EC50 concentration), read-out: CXCR4 fKi
pKi: −log10 of the molar value.

Reference set, count: 2
Cc1cc(NC(=O)c2cccc(N3CCCN(C4CCN(Cc5ccccc5Cl)CC4)CC3)n2)cc(C)n1 [Example 85]; 7.00 to 7.70
CC(C)N1CCC(N2CCCN(c3cccc(-c4cc5cccnc5[nH]4)n3)CC2)CC1 [Example 99]; 7.00 to 7.70

So, c1cc(NCCNCC2CCN(C3CCCC3)C2)nc(-c2ncc(C3CC3)[nH]2)c1 (centres unmarked) [Example 229] ? Its pKi was 6.30 to 7.00

So, CC(C)N1CCC(N2CCCN(c3cccc(C(=O)NCc4cocn4)n3)CC2)CC1 [Example 41] ? Its pKi was 7.00 to 7.70

So, CC(C)N1CCC(N2C3CCCC2CN(c2cccc(C(=O)NCC4CC4)n2)CC3)CC1 (centres unmarked) [Example 217] ? Its pKi was 6.30 to 7.00

So, CC(C)N1CCC(N2CCCN(c3cccc(C(=O)NCC4CCOCC4)n3)CC2)CC1 [Example 1] ? Its pKi was 6.30 to 7.00

So, O=C(NCC1CC1)c1cccc(N2CCCN(C3CCN([C@@H]4CCc5ccccc54)CC3)CC2)n1 [Example 76] ? Its pKi was 7.00 to 7.70

So, CC(C)N1CCC(N2CCCN(c3cccc(-c4nnn(C)n4)n3)CC2)CC1 [Example 168] ? Its pKi was 6.30 to 7.00

So, CC(C)N1CCC(N2CCC(C)N(c3cccc(C(=O)NCC4CC4)n3)CC2)CC1 (centres unmarked) [Example 174] ? Its pKi was 6.30 to 7.00

So, [2H]C1([2H])CCN(c2cccc(C(=O)Nc3ccncc3)n2)CCN1C1CCN(C(C)C)CC1 [Example 186] ? Its pKi was > 7.70

So, CC(C)N1CCC(N2CCCN(c3cccc(C(=O)NCCn4ccnc4)n3)CC2)CC1 [Example 45] ? Its pKi was 7.00 to 7.70
